System: CAKI-1
Experiment: NCI tumour cell line growth inhibition, 48 h
Active and inactive are the calls of the source. Cut-off read from the data, not from the text of the source: active = GI50 up to about 1.1 µM and inactive = higher.
Below: a set of entries, each annotated with reported GI50.

Solved cases (6 shown):
- CCOC(=O)C(=O)Nc1c(CC)cccc1C(C)CC (stereo not given): > 100 µM (inactive)
- COC(=O)C1=C(C)N(NC(=O)c2ccccc2)C(C)(O)C12CCOC2=O (stereo not given): > 100 µM (inactive)
- O[C@H]1[C@@H]2OC[C@@H](O)[C@H](OCc3ccccc3)[C@@](COCc3ccccc3)(O2)[C@@H]1OCc1ccccc1: < 0.01 µM (active)
- CN(C)c1ccc(C2C(Cl)C(=O)N2NC(=O)c2c(Cl)c(Cl)c(Cl)c(Cl)c2-c2nc3ccccc3[nH]2)cc1 (stereo not given): 15.6 µM (inactive)
- CC(C)=CCC/C(C)=C/CC/C(C)=C/CC/C(C=O)=C/CC/C(C)=C\CC/C(C)=C/CC/C(C)=C/CC/C(C)=C/CC1=CC(=O)C=CC1=O: 33 µM (inactive)
- CC(=O)O[C@H]1C(=O)[C@@]2(C)[C@H]([C@H](OC(=O)c3ccccc3)[C@]3(O)C[C@H](OC(=O)[C@H](O)[C@@H](NC(=O)c4ccc(N(C)C)cc4)c4ccccc4)C(C)=C1C3(C)C)[C@]1(OC(C)=O)CO[C@@H]1C[C@@H]2O: 0.339 µM (active)

Kindly consider the entry below.
**Q:** For the compound `O=C(NCCO)Nc1c(C(F)(F)F)cc(-c2ccccc2)[nH]c1=O` , give its measured GI50 value.
**A:** > 100 µM (inactive)

# credit: ChEMBL document CHEMBL1201862
